Target: mPGES-1 (Homo sapiens (Human), UniProt O14684)
Sequence (O14684 whole entry): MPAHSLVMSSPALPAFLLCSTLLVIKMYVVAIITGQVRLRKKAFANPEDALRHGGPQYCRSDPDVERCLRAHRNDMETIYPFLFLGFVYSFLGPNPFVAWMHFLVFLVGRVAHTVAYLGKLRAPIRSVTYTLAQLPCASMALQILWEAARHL
Test: mPGES-1 enzyme assay (HTRF detection of PGE2)
Assay type: biochemical
Details: recombinant human mPGES-1 microsomes, PGH2 2 μM; read-out: mPGES-1 inhibitory effect in the enzyme assay, IC50
quantity: pIC50
In plain terms, pIC50 is the concentration in mol/L turned into minus its base-10 logarithm.

Recorded pIC50, per entry:
# compound, measurement
data = [
    ("Cn1c(Nc2c(Cl)ccc(CNC(=O)C(C)(C)C)c2Cl)nc2cc(C(=O)NCC(F)(F)F)c(F)cc21", 8.52),
    ("Cn1c(Nc2c(Cl)ccc(CNC(=O)N3CCC(F)(F)C3)c2Cl)nc2cc(C(=O)N[C@H]3CC[C@H](C(F)(F)F)CC3)c(OCC(F)F)cc21", 8.52),
    ("CC(C)(C)C(=O)NCc1ccc(F)c(Nc2nc3cc(C(=O)Nc4ccc(F)c(Cl)c4)c(F)cc3[nH]2)c1F", 8.52),
    ("Cn1c(Nc2c(Cl)ccc(CNC(=O)C(C)(C)C)c2Cl)nc2cc(C(=O)Nc3ccc(Cl)c(F)c3)c(F)cc21", 9.00),
    ("Cn1c(Nc2c(Cl)ccc(CNC(=O)C(C)(C)C)c2Cl)nc2cc(C(=O)Nc3ccncc3Cl)c(OCC(F)F)cc21", 8.40),
]

Problem: Could you share which pIC50 value was measured for "Cn1c(Nc2c(Cl)ccc(CNC(=O)C(C)(C)C)c2Cl)nc2cc(C(=O)Nc3ncc(Cl)s3)c(OCC(F)F)cc21" ?
Result: 8.40

Problem: Could you share which pIC50 value was measured for "Cn1c(Nc2c(Cl)ccc(CNC(=O)C(C)(C)C)c2Cl)nc2cc(C(=O)NCCC(F)(F)F)c(OCC(F)F)cc21" ?
Result: 8.52

Problem: Could you share which pIC50 value was measured for "Cn1c(Nc2c(Cl)ccc(CNC(=O)C(C)(C)C)c2F)nc2cc(C(=O)NCC(F)(F)F)c(OCC(F)F)cc21" ?
Result: 8.70

Problem: Could you share which pIC50 value was measured for "CC(C)(C)C(=O)NCc1ccc(Cl)c(Nc2nc3cc(C(=O)N[C@H]4CC[C@H](C(F)(F)F)CC4)c(F)cc3[nH]2)c1Cl" ?
Result: 8.40

Problem: Could you share which pIC50 value was measured for "COCCOc1cc2c(cc1C(=O)Nc1ccc(F)c(Cl)c1)nc(Nc1c(Cl)ccc(CNC(=O)C(C)(C)C)c1Cl)n2C" ?
Result: 9.00
